B1: TPR 5TU (parent)
chain: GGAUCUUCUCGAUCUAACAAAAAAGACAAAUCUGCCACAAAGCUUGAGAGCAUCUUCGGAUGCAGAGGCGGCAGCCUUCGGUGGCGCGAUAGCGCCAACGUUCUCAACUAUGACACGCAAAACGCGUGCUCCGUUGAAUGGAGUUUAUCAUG

variants of: B1; assay: polymerase ribozyme fitness, log enrichment relative to wild type (log ratio); higher = more active; in vitro selection for triplet polymerase activity
This sample holds only a part of the variants without activity.
// label 0 strictly below -4 in polymerase ribozyme fitness (log ratio); label 1 otherwise

mutation code	classification
G11U G94A A98C	label 1
C87A U90C G117C	label 1
A16U A24U C27U A39U U55A C76A	label 0
A30G G74U C95A U148G	label 0
C18U A29U A30U G70C C149G	label 0
A41G G84U	label 1
U102C G136A	label 1
G50A A110G	label 1
A16U U56A G62A U82G C85U A142G	label 0
